Target or system: Factor X (FX), P00742
Sequence (P00742 whole entry, looked up): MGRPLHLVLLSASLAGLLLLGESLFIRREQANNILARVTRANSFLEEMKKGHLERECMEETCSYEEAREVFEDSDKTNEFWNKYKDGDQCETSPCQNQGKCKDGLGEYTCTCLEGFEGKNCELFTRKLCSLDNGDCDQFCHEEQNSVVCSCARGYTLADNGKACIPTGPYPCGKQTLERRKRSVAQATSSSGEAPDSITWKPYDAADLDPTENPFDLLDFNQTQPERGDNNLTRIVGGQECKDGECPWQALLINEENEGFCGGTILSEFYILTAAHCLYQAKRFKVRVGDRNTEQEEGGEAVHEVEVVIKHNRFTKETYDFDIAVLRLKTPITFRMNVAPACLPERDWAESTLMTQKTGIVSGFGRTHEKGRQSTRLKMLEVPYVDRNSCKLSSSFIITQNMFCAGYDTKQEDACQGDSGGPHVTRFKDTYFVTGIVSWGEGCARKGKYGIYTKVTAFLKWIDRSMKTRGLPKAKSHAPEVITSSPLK
Endpoint label: KM

Consider the following illustrative entries.
• FIXa-R318Y/R338E/R403E/E410N/T412V (protein) chain 1: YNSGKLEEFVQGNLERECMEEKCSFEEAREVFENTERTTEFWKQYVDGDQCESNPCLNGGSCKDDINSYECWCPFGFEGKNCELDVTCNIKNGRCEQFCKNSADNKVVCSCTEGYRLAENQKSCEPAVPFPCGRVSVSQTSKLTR chain 2: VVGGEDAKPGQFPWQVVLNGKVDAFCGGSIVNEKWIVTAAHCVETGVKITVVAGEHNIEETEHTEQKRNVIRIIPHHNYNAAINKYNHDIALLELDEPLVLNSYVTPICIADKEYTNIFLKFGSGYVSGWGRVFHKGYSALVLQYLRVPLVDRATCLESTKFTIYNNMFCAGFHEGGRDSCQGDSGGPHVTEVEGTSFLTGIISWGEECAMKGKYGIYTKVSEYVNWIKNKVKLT = 0.0443 µM
• FIXa-N260S/R318Y/R338E/T343R/R403E/E410N (protein) chain 1: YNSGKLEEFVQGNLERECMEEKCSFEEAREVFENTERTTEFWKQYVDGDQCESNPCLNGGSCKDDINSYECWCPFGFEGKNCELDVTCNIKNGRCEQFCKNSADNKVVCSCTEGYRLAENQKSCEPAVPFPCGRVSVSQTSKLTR chain 2: VVGGEDAKPGQFPWQVVLNGKVDAFCGGSIVNEKWIVTAAHCVETGVKITVVAGEHNIEETEHTEQKRNVIRIIPHHNYSAAINKYNHDIALLELDEPLVLNSYVTPICIADKEYTNIFLKFGSGYVSGWGRVFHKGYSALVLQYLRVPLVDRATCLESTKFRIYNNMFCAGFHEGGRDSCQGDSGGPHVTEVEGTSFLTGIISWGEECAMKGKYGIYTKVSEYVNWIKNKTKLT = 0.0321 µM
• FIXa D203N/F205T/R318Y (protein) chain 1: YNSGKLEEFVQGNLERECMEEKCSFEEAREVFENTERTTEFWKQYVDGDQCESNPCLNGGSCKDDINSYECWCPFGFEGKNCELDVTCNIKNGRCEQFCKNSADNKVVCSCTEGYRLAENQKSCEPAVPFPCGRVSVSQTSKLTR chain 2: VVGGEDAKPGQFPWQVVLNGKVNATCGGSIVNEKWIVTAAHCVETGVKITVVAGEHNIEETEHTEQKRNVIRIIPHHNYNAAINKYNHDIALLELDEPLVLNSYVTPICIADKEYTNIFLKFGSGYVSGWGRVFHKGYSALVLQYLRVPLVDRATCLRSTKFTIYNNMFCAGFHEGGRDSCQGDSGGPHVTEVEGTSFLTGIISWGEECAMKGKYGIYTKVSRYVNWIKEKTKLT = 0.0475 µM

// switching to the query protein
Record request: KM value, item FIXa K228N/R338E/R403E (protein) chain 1: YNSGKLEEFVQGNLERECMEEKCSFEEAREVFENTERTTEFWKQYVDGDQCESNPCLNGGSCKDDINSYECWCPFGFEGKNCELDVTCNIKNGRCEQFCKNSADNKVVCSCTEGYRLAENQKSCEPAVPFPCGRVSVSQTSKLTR chain 2: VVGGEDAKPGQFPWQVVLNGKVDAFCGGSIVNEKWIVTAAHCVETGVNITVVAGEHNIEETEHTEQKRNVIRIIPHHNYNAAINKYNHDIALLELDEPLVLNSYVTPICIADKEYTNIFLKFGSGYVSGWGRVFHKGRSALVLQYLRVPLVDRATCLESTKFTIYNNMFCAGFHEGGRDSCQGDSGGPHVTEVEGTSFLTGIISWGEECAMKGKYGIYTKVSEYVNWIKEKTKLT 0.0592 µM
